Study Target: Putative P2Y purinoceptor 10 (Mus musculus)
Protocol Notes: Agonist activity at mouse P2Y10 receptor expressed in McA-RH7777 cells assessed as actin stress fiber formation at 1 uM after 30 mins by confocal microscopy
Format: cell-based
Calls of active or inactive are those of the source. No cut-off for these calls is given here.
Hi there, use one of these labels in your reply, thanks! t for active, f for inactive

Worked examples follow.
Molecule Smiles | Study Target | Group
CCCCCCCCCCCOc1ccccc1CCC(=O)OCC(F)(F)COP(=O)(O)OC[C@H](N)C(=O)O | Putative P2Y purinoceptor 10 (Mus musculus) | t
CCCCCCCCCCCOc1ccccc1CCC(=O)OCCCOP(=O)(O)OC[C@H](N)C(=O)O | Putative P2Y purinoceptor 10 (Mus musculus) | t
CCCCCCCC/C=C\CCCCCCCC(=O)OC[C@@H](O)COP(=O)(O)OC[C@H](N)C(=O)O | Putative P2Y purinoceptor 10 (Mus musculus) | t

For the next question, use this molecule.
QUERY: # outcome recorded in this test, key = `CCCCCCCCCCCOc1cccc(CCC(=O)NC[C@@H](O)COP(=O)(O)O[C@@H](C)[C@H](N)C(=O)O)c1`
RESULT: f

Origin of values: ChEMBL document CHEMBL3576865
